Sourced from patent US20240166635A1

# studyTarget: CDK7/CyclinH/MAT1 (Homo sapiens (Human), UniProt P50613)
# Sequence (P50613 whole entry): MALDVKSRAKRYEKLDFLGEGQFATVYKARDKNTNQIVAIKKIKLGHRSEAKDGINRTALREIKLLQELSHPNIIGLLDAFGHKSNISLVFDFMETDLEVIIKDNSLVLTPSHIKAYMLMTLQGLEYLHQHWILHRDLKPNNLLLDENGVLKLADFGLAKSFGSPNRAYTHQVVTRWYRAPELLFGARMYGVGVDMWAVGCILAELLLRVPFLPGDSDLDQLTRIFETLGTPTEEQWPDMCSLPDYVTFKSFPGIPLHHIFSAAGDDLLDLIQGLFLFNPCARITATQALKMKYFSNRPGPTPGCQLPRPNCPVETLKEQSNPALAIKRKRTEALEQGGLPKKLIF
# Sequence (P51946 whole entry partner): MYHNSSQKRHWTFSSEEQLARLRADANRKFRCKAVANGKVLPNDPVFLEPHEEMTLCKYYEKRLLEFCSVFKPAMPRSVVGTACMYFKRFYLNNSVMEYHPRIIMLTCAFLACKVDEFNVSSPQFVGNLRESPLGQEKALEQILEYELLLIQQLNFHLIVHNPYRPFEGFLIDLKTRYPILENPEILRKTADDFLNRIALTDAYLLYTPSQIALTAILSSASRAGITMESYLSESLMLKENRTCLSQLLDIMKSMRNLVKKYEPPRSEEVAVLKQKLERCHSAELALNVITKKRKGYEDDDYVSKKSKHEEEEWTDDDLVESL
# Sequence (P51948 whole entry partner): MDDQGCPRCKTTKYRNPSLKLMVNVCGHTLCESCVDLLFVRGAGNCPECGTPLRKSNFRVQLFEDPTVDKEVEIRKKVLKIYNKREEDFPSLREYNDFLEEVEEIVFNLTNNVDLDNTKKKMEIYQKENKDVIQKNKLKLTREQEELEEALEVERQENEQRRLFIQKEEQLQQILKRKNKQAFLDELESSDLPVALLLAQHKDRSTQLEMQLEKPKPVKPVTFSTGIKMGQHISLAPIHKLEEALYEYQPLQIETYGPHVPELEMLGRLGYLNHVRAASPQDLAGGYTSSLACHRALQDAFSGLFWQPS
# procedureText: CDK7/CyclinH/MAT1 kinase inhibitory activity (Caliper mobility shift)
pIC50: −log10 of the molar value.
experimentalReadout: pIC50

// below: answered compounds
compound | studyTarget | pIC50
CNS(=O)(=O)c1ccc(Nc2ncc(C(F)(F)F)c(OC3CCOCC3O)n2)cc1 (single isomer, unassigned) [Example 116a] | CDK7/CyclinH/MAT1 (Homo sapiens (Human), UniProt P50613) | 6.00 to 7.00
C=Cc1cnc(Nc2ccc(S(N)(=O)=O)cc2)nc1OC1CCCC1O (single isomer, unassigned) [Example 155a] | CDK7/CyclinH/MAT1 (Homo sapiens (Human), UniProt P50613) | 6.00 to 7.00

Next compound, pIC50 to be filled in.
Look up pIC50 for this compound: [2H]C([2H])([2H])NS(=O)(=O)c1ccc(Nc2ncc(CC)c(OC3CCCC3O)n2)cc1 (single isomer, unassigned) [Example 149a]
6.00 to 7.00

###

# studyTarget: CDK7/CyclinH/MAT1 (Homo sapiens (Human), UniProt P50613)
# procedureText: CDK7/CyclinH/MAT1 kinase inhibitory activity (Caliper mobility shift)
pIC50: −log10 of the molar value.
pIC50 values for the molecules below.

// below: answered molecules
molecule | pIC50
CNS(=O)(=O)N1CCC(Nc2ncc(C(F)(F)F)c(OC3CCCCCC3O)n2)CC1 (single isomer, unassigned) [Example 123b] | 6.00 to 7.00
Cn1cnc(S(=O)(=O)N2CCC(Nc3ncc(C#N)c(OC4CCCC4(C)O)n3)CC2)n1 (single isomer, unassigned) [Example 51b] | ≤ 6.00
Cn1cc(S(=O)(=O)N2CCC(Nc3ncc(C#N)c(OCC4(C)CCC4)n3)CC2)cn1 | 6.00 to 7.00
N#Cc1cnc(Nc2ccc(S(N)(=O)=O)cc2)nc1OCC1(CO)CCCCC1 | ≤ 6.00
[2H]C([2H])([2H])NS(=O)(=O)c1ccc(Nc2ncc(C(F)(F)F)c(OC3CCOCCC3O)n2)cc1 (single isomer, unassigned) [Example 102d] | ≤ 6.00

Kindly state the measured pIC50 obtained for N#Cc1cnc(Nc2ccc(S(N)(=O)=O)cc2)nc1OC1CCCC1O (single isomer, unassigned) [Example 20a] with CDK7/CyclinH/MAT1 (Homo sapiens (Human), UniProt P50613).
≤ 6.00

Kindly state the measured pIC50 obtained for Cc1cnc(Nc2ccc(S(N)(=O)=O)cc2)nc1O[C@@H]1CCC[C@@H]1O (single isomer, unassigned) [Example 132a] with CDK7/CyclinH/MAT1 (Homo sapiens (Human), UniProt P50613).
6.00 to 7.00

###

# studyTarget: CDK9/CyclinT1 (Homo sapiens (Human))
# Sequence (P50750 whole entry): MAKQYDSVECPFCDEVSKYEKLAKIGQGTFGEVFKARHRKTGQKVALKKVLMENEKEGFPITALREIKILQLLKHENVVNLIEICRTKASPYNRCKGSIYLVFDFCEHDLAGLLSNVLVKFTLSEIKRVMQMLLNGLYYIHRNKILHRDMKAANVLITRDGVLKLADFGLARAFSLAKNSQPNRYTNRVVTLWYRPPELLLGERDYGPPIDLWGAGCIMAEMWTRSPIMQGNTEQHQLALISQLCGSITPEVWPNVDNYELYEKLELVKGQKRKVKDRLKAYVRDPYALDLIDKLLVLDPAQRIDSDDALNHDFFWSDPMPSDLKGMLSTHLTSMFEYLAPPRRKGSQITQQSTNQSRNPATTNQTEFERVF
# Sequence (O60563 whole entry partner): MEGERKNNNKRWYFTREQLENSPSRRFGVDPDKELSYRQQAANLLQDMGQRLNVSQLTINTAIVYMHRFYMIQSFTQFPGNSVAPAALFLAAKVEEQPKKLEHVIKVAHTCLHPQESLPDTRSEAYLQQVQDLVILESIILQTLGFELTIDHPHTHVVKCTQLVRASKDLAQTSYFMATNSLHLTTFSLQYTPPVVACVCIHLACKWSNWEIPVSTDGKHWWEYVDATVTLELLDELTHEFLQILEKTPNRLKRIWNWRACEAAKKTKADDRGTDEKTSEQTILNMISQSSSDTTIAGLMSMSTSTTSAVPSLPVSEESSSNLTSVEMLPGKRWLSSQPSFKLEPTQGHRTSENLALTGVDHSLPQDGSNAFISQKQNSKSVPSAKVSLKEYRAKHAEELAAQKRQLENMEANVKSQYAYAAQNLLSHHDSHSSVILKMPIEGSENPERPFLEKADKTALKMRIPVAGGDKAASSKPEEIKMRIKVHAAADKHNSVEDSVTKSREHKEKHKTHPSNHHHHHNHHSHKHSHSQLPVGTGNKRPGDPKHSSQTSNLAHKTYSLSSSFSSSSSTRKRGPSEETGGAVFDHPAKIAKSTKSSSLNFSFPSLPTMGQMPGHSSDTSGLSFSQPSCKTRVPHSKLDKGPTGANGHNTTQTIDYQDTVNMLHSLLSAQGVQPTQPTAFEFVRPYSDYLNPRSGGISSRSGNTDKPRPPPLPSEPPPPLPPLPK
# procedureText: CDK9/CyclinT1 kinase inhibitory activity (Caliper mobility shift)
# measurementParameters: read-out: CDK9/Cyclin T1 IC50
experimentalReadout: IC50

compound | IC50
NS(=O)(=O)c1ccc(Nc2ncc(C(F)(F)F)c(OC3CCCCC3O)n2)cc1 (single isomer, unassigned) [Example 111b] | 10 to 100 nM
CS(=O)(=O)N1CCC(Nc2ncc(C(F)(F)F)c(OC3CCCCC3)n2)CC1 | 10 to 100 nM
N#Cc1cnc(Nc2ccc(S(N)(=O)=O)cc2)nc1OC1CCCC1CO (single isomer, unassigned) [Example 18b] | 100 to 1000 nM
Cn1ccc(S(=O)(=O)N2CCC(Nc3ncc(C#N)c(OCC4(C)CCCC4)n3)CC2)n1 | 100 to 1000 nM
N#Cc1cnc(Nc2ccc(S(N)(=O)=O)cc2)nc1OC1CCCCCC1O (single isomer, unassigned) [Example 22b] | 100 to 1000 nM

Look up IC50 for this compound: CC1(O)CCCC1Oc1nc(Nc2ccc(S(N)(=O)=O)cc2)ncc1C1CC1 (single isomer, unassigned) [Example 154b]
100 to 1000 nM

Look up IC50 for this compound: `N#Cc1cnc(Nc2ccc(S(N)(=O)=O)cc2)nc1-c1ccccc1`
100 to 1000 nM

Look up IC50 for this compound: CC1(O)COCCC1Oc1nc(NC2CCN(S(C)(=O)=O)CC2)ncc1C#N (single isomer, unassigned) [Example 45b]
≥ 1000 nM

Look up IC50 for this compound: C[C@]1(O)CCC[C@H]1Oc1nc(NC2CCN(S(C)(=O)=O)CC2)ncc1C#N (relative stereo) [Example 5b]
≥ 1000 nM

Look up IC50 for this compound: [2H]C1([2H])CC(O)C(Oc2nc(Nc3ccc(S(=O)(=O)NC([2H])([2H])[2H])cc3)ncc2C(F)(F)F)C1 (single isomer, unassigned) [Example 110b]
100 to 1000 nM

Look up IC50 for this compound: [2H]C([2H])([2H])NS(=O)(=O)c1ccc(Nc2ncc(C(F)(F)F)c(OC3CCCC3O)n2)cc1 (single isomer, unassigned) [Example 109a]
100 to 1000 nM
